These entries and their values trace back to PubChem BioAssay AID1902.

Target: S. pyogenes SKKanGAS, kanamycin survival, BacTiterGlo, 6 h
Experiment: S. pyogenes SKKanGAS kanamycin growth inhibitors – SKKanGAS strain, luminescence, dose confirmation, streptokinase promoter inhibitor project, dose response (AID 1902);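 also: lower survival reflects blocked streptokinase promoter driving kanamycin resistance gene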
I'd appreciate it if you could supply EC50 values for the items below.

Measured EC50 (S. pyogenes SKKanGAS, kanamycin survival, BacTiterGlo, 6 h), entry `CCCn1c(NC(=O)c2cccc(C)c2C)nc2ccccc21` : 7.37 µM

GET /values?item= `CCc1cc(-c2n[nH]c(C)c2Oc2ccc(C(C)C)cc2)c(O)cc1O` &system= S. pyogenes SKKanGAS, kanamycin survival, BacTiterGlo, 6 h returns EC50: 1.85 µM

Entry `CCN(c1ccccc1)S(=O)(=O)c1ccc(C(=O)Nc2nnc(CSC)o2)cc1` : EC50 on S. pyogenes SKKanGAS, kanamycin survival, BacTiterGlo, 6 h = 3.7 µM

// assay S. pyogenes SKKanGAS, kanamycin survival, BacTiterGlo, 6 h, entry `Cc1ccccc1-c1cc2nc(-c3ccc([N+](=O)[O-])cc3)cc(=O)n2[nH]1` , EC50 value = 11.9 µM

Reading of EC50 for `CC(C)(C)c1ccc(C(=O)NC(=S)NNC(=O)COc2ccccc2)cc1` with S. pyogenes SKKanGAS, kanamycin survival, BacTiterGlo, 6 h: < 0.06 µM

Measured EC50 for this entry `Cc1ccc(-c2cc([C@H]3[C@@H]4C=CCC[C@@]4(C)C(=O)N3Cc3ccccc3)ccc2F)cc1` on S. pyogenes SKKanGAS, kanamycin survival, BacTiterGlo, 6 h: 3.44 µM

// assay S. pyogenes SKKanGAS, kanamycin survival, BacTiterGlo, 6 h, entry `O=C(Nc1ccccc1Cc1ccccc1)c1ccccc1NS(=O)(=O)c1ccc(Cl)s1` , EC50 value = 0.59 µM

Record for `COc1cc2nc(=S)n3[nH]c(COc4ccccc4C)nc3c2cc1OC` under target or system S. pyogenes SKKanGAS, kanamycin survival, BacTiterGlo, 6 h: EC50 reported as 2.28 µM

I looked up `CC(C)Cn1c(=O)c(C(=O)Nc2ccccc2S(N)(=O)=O)c(O)c2ccccc21` and its EC50 for S. pyogenes SKKanGAS, kanamycin survival, BacTiterGlo, 6 h was 8.58 µM

Entry `Cc1c(C(=O)Nc2ccc3c(c2)OCCO3)sc2nc(-c3ccccc3)cn12` : EC50 on S. pyogenes SKKanGAS, kanamycin survival, BacTiterGlo, 6 h = 2.52 µM

Case `Cc1ccc2sc(NNC(=O)c3ccc4c(c3)OCCO4)nc2c1C` , S. pyogenes SKKanGAS, kanamycin survival, BacTiterGlo, 6 h, EC50 recorded as 3.79 µM

For the compound `O=C(Nc1ccc(Cl)c(Cl)c1)Nc1ccon1` , the measured EC50 on S. pyogenes SKKanGAS, kanamycin survival, BacTiterGlo, 6 h was 14.5 µM

The reported EC50 value, S. pyogenes SKKanGAS, kanamycin survival, BacTiterGlo, 6 h, for `CNc1ccc2oc(C[C@H]3O[C@@]4(CC[C@H]3C)O[C@H]([C@H](C)C(=O)c3ccc[nH]3)[C@H](C)C[C@H]4C)nc2c1C(=O)O` reads < 0.06 µM

Observed EC50, S. pyogenes SKKanGAS, kanamycin survival, BacTiterGlo, 6 h, `Oc1cc(OCc2ccccc2)ccc1-c1[nH]ncc1-c1ccccc1` : 3.06 µM

Short answer on S. pyogenes SKKanGAS, kanamycin survival, BacTiterGlo, 6 h for `COc1ccc(-c2cn[nH]c2-c2ccc(OC)cc2)cc1` , EC50: 6.64 µM

Short answer on S. pyogenes SKKanGAS, kanamycin survival, BacTiterGlo, 6 h for `COc1ccc(NC(=S)N=Nc2c(O)[nH]c3ccccc23)cc1` , EC50: 1.09 µM

# EC50 measured on S. pyogenes SKKanGAS, kanamycin survival, BacTiterGlo, 6 h for item `Brc1ccc(Nc2ncnc3[nH]ncc23)cc1` = 8.45 µM

Form field EC50 for item `Cc1[nH]c(-c2ccc(F)cc2)cc1C(=O)N1CCN(c2cccc(Cl)c2)CC1` on S. pyogenes SKKanGAS, kanamycin survival, BacTiterGlo, 6 h: 4.92 µM

Observed EC50 on S. pyogenes SKKanGAS, kanamycin survival, BacTiterGlo, 6 h, entry `O=C(NC(=S)N(CCCCO)C1CCCCC1)c1sc2ccccc2c1Cl` , equals 0.527 µM

Hey, S. pyogenes SKKanGAS, kanamycin survival, BacTiterGlo, 6 h data for `CCCCCCCCCCn1c2c(c(=N)c3c1CCC3)CCC2` : EC50 came out at 9.26 µM

`O=C(O)c1cnc(-c2ccccc2)nc1Sc1ccc(Cl)cc1Cl` on S. pyogenes SKKanGAS, kanamycin survival, BacTiterGlo, 6 h gives EC50 = 9.74 µM

EC50 value, target or system S. pyogenes SKKanGAS, kanamycin survival, BacTiterGlo, 6 h, for `COc1cccc(N/N=C/c2cccc(Br)c2O)c1` : 15.6 µM
